- System: OVCAR-4 ovarian
- Test description: NCI-60 one-dose screen, 48 h
- Condition context: 10 µM unless noted
Compounds without any hit were thinned out: in the full panel of roughly 83,000, 20% have a hit. Activity calls are given as the source filed them. How the source made its calls: active means growth percent below 10; inactive means the rest.
Select the matching outcome among active, inactive

Could you please tell me the result logged for CC1=CC2(C)/C=C(C)/C=C\CC(O)/C=C3/C=CC(=C4C(=O)OC2(CC1C)C4=O)OC3 (stereo not drawn) in this assay?
active

Could you please tell me the result logged for CCN(CC)CCSCCCNc1c(C)cnc2cc(Cl)ccc12 in this assay?
inactive

Could you please tell me the result logged for Cc1ccc(C2CC(c3cccc(Nc4ccncc4)c3)=NN2c2ccc(Cl)cc2)cc1 (stereo not drawn) in this assay?
active

###

Please respond with reported growth for every item in the list.
- System: HCT-116 colon
- Test description: NCI-60 one-dose screen, 48 h (100 = growth as untreated, 0 = no growth, -100 = all killed)
- Condition context: 10 µM unless noted
This is part of a sample that, as a whole, favours compounds with a hit. Of some 83,000 tested, about 20% had one in any assay.
Report only the number, with the unit % understood.

For record CCC1(CC)NC(=O)c2c(c3ccc(Cl)c(Cl)c3n2C)C1C#N (stereo unspecified) the listed growth is 76.3

For record CCC(=O)c1ccc(O)c(OC)c1 the listed growth is 91.2

For record COc1ccc(C(=O)c2cc3c(N)c(C(=O)Nc4ccc(Cl)cc4)sc3nc2C)cc1 the listed growth is 54.6

For record CC(N)C(=O)NNc1n[nH]c(=S)n1N (stereo unspecified) the listed growth is 103

For record CCCCCCCC(=O)Nc1nc2[nH]c(CN3CCN(Cc4cccc(I)c4)CC3)c(CN3CCN(Cc4cccc(I)c4)CC3)c2c(=O)[nH]1 the listed growth is -100

For record Clc1ccc(C2CC(c3cccc(Nc4ccncc4)c3)=NN2c2cc(Cl)cc(Cl)c2)cc1 (stereo unspecified) the listed growth is -74.2

For record NS(=O)(=O)c1cccc(NC(=O)C(=O)C2C(=O)Nc3ccccc32)c1 (stereo unspecified) the listed growth is 93.3

For record Clc1ccc2c(c1)c(-c1ccccc1)nc1nncn12 the listed growth is 106

For record O=C(N/N=C/c1ccncc1)c1ccccc1Nc1cccc(C(F)(F)F)c1 the listed growth is 69.2

For record C=CCn1c(SCC(=O)Nc2ccc(C(=O)/C=C/c3cc(OC)c(OC)c(OC)c3)cc2)nnc1-c1cc(OC)c(OC)c(OC)c1 the listed growth is -70.9

For record CCCCCCNC(=O)Oc1ccc(/C(=C(/CC)Cc2ccccc2)c2ccc(OCCN(CC)CC)cc2)cc1 the listed growth is 27.2

For record Cc1nc2sc(C(=O)Nc3cccc(Br)c3)c(N)c2cc1C(=O)c1ccc(C(F)(F)F)cc1 the listed growth is 56.1

For record CC(=O)Nc1ccc(C(=O)Nc2cc(-c3ccccc3)ccc2N)cc1 the listed growth is 50.1

For record COc1ccc(Cn2nc(-c3ccccc3)c3c2CCc2cnoc2-3)cc1 the listed growth is 65.4

For record O=C(N/N=C/c1ccc(F)cc1)c1ccccc1Nc1cccc(C(F)(F)F)c1 the listed growth is 111

For record CCCCCCCCCCN=C(N)N=C(N)N the listed growth is 41.9

###

- Test system: RPMI-8226 leukemia
- Test description: NCI-60 one-dose screen, 48 h
- Condition context: 10 µM unless noted
The panel holds about 83,000 compounds, 20% with a hit somewhere; the sample as a whole holds those more often. Active and inactive are the calls of the source. The calls were made as follows: active = growth percent below 10; inactive = the rest.
Select the matching outcome among active, inactive

Could you please tell me the result logged for CC1(C)NCCC[C@]2(C)[C@H]3CC=C4[C@@H]5C[C@@](C)(CO)CC[C@]5(C)CC[C@@]4(C)[C@]3(C)CC[C@@H]12 in this assay?
inactive

Could you please tell me the result logged for C=C1C(=O)O[C@H]2[C@H]1CC/C(CNC(=O)/C=C/c1ccc(Br)cc1)=C\CC[C@@]1(C)O[C@@H]21 in this assay?
active

Could you please tell me the result logged for CCOC(=O)N1CCc2c(sc3nc4nc[nH]n4c(=O)c23)C1 in this assay?
inactive

Could you please tell me the result logged for CN1CCN(c2c(F)cc(NC3=C(Cl)C(=O)c4ncccc4C3=O)cc2F)CC1 in this assay?
inactive

Could you please tell me the result logged for c1cnc2nc3c(cc2c1)oc1ccccc13 in this assay?
inactive

Could you please tell me the result logged for Cc1[nH]n(-c2cccc(Cl)c2)c(=O)c1/C=C1\C=Nc2ccc(Br)cc21 in this assay?
inactive

Could you please tell me the result logged for CN(C)CCCn1c2c(c3ccc(-c4ccn[nH]4)cc3c1=O)C(=O)c1ccccc1-2 in this assay?
active

###

- Test system: HCT-116 colon
- Test description: NCI-60 one-dose screen, 48 h (100 = growth as untreated, 0 = no growth, -100 = all killed)
- Condition context: 10 µM unless noted
The panel holds about 83,000 compounds, 20% with a hit somewhere; the sample as a whole holds those more often.
Please respond with reported growth for every item in the list.
Report only the number, with the unit % understood.

For record COc1cc2nc(-c3ccc(C(F)(F)F)cc3)cc(OCCN3CCC(O)CC3)c2cc1OC the listed growth is 55.3

For record Cc1ccc(C2CC(c3cccc(Nc4ccncc4)c3)=NN2c2ccc(Cl)cc2)cc1 (stereo not given) the listed growth is -80.1

For record FCc1nc2nc(Cl)c(Cl)nc2[nH]1 the listed growth is 101

For record CC1=NNC(=O)C1CCC(=O)N/N=C(\C)c1ccc2ccccc2c1 (stereo not given) the listed growth is 92.7

For record CN(C)CCCn1c2c(c3ccc(-c4ccn[nH]4)cc3c1=O)C(=O)c1ccccc1-2 the listed growth is 28.9

For record CC(=O)CCSc1ccc(OC(C)=O)cc1 the listed growth is 97

For record CCN(CC)CCCC(C)Nc1cc(-c2cccc(OC(F)(F)F)c2)nc2ccc(N3CCCC3)cc12 (stereo not given) the listed growth is -53.7

For record COc1cc2nc(Cc3ccc(C)cc3)[nH]c(=O)c2cc1OC the listed growth is 117

For record FC(F)(F)Oc1cccc(-c2cc(NCCCCCCNc3cc(-c4cccc(OC(F)(F)F)c4)nc4ccc(N5CCCC5)cc34)c3cc(N4CCCC4)ccc3n2)c1 the listed growth is -66.6

For record CC(=O)NCCCS(=O)(=O)O the listed growth is 98.5

###

- Test system: SF-539 CNS
- Test description: NCI-60 one-dose screen, 48 h (100 = growth as untreated, 0 = no growth, -100 = all killed)
- Condition context: 10 µM unless noted
About 83,000 compounds went through this panel and 20% of them were active in at least one assay; those are over-represented in the sample as a whole.
Assign class 1 whenever growth does not fall below 60%; assign class 0 whenever it does.

Form field: growth at least 60%? Entry: COc1cc(NCC(O)CN(CC(C)C)CC(C)C)c2nc(C)ccc2c1 (configuration not stated)
class 1

Form field: growth at least 60%? Entry: O=CNc1cc(Cl)cc(Cl)c1
class 1

Form field: growth at least 60%? Entry: CC(C)(C)CC(C)(C)Nc1c(-c2ccc(C(F)(F)F)cc2)nc2cnccn12
class 1

Form field: growth at least 60%? Entry: COc1ccc(-c2nc(SCCC(C)C)nc(N/N=C(/C)c3ccc(C)cc3)c2C#N)cc1
class 1

Form field: growth at least 60%? Entry: CN1CCN(c2cnc(C(=O)Nc3cc(F)cc4cccnc34)cn2)CC1
class 1

Form field: growth at least 60%? Entry: CN(C)C(=O)OCc1nc2c(N3CCOCC3)nc(-c3ccccc3)nc2n1C
class 0

Form field: growth at least 60%? Entry: O=c1[nH]c(=O)[nH]c(=S)[nH]1
class 1

Form field: growth at least 60%? Entry: Cc1c(C2=CCCCC2)c2ccccn2c1C(=O)c1cccc(S(=O)(=O)N2CCOCC2)c1
class 1

Form field: growth at least 60%? Entry: CCCCCCCCCCCCCCCC(=O)OC[C@@]1(O)C[C@@]23CC[C@@H]4C(C)(C)[C@H](O)CC[C@@]4(C)[C@@H]2CC[C@H]1C3
class 1

Form field: growth at least 60%? Entry: Cc1ccc(C2C3CC4CCCCC4N3[C@@]3(C(=O)Nc4cc(Cl)ccc43)C2C(=O)c2nc3ccccc3[nH]2)cc1 (some centres not stated)
class 0

Form field: growth at least 60%? Entry: O=S(=O)(NCCNc1nccc(-c2c(-c3ccc(F)c(O)c3)nc3occn23)n1)c1ccccc1
class 1

Form field: growth at least 60%? Entry: O=C1/C(=C\c2cn(Cc3ccccc3)c3ccc(Br)cc23)c2ccccc2N1c1c(Cl)cccc1Cl
class 1

Form field: growth at least 60%? Entry: CC(C)NC(=O)N1C(=O)CCC1NNC(=O)c1ccc([N+](=O)[O-])cc1 (configuration not stated)
class 1

Form field: growth at least 60%? Entry: Cc1c2c(cc[n+]1Cc1ccccc1)c1ccc(OCC3CCCCC3)cc1n2CC1CCCCC1
class 0

Form field: growth at least 60%? Entry: CCCCCCOc1ccc(C(=N)N(CCCC)CCCC)c2ccccc12
class 0

Form field: growth at least 60%? Entry: CCCC1C(C(=O)OCC)=C(N)Oc2cc(O)ccc21 (configuration not stated)
class 1

Form field: growth at least 60%? Entry: CN(C)C(=O)c1cc2cnc(Nc3ccc(-c4csc5c(=O)cc(N6CCOCC6)oc45)cc3)nc2n1C1CCCC1
class 0

Form field: growth at least 60%? Entry: Nc1ncc(C#Cc2cncc(NC(=O)c3cccc(C(F)(F)F)c3)c2)c2cccnc12
class 0

Form field: growth at least 60%? Entry: COc1ccc2c(c1)c(CC(=O)NCCOCCOCC(=O)Nc1ccc(OC)c(C(N)=O)c1O)c(C)n2C(=O)c1ccc(Cl)cc1
class 1

Form field: growth at least 60%? Entry: CCCCCCN(C)Cc1ccc(OCCOc2ccc(CN(C)CCCCCC)cc2)cc1
class 0

Form field: growth at least 60%? Entry: OC(c1ccccc1)c1ccccn1 (configuration not stated)
class 1

Form field: growth at least 60%? Entry: BrC(Br)(Br)c1cnc2ccccc2n1
class 0

Form field: growth at least 60%? Entry: OC1(c2ccc(Cl)c(C(F)(F)F)c2)CCN(CCCC(c2ccc(F)cc2)c2ccc(F)cc2)CC1
class 0

Form field: growth at least 60%? Entry: COc1ccc(C(=O)c2cc3c(N)c(C(=O)Nc4cccc(Cl)c4)sc3nc2C)cc1
class 0

Form field: growth at least 60%? Entry: COc1cc2nc(-c3ccc(C(F)(F)F)cc3)cc(OCCCN3CCCCC3)c2cc1OC
class 0

Form field: growth at least 60%? Entry: O=S(=O)(c1ccccc1)N1CCCc2ccccc21
class 1
